- studyTarget: Ubiquitin-activating enzyme e1, putative (Leishmania donovani (strain BPK282A1)) (UniProt E9BSI1)
- Sequence (E9BSI1 as listed by the source): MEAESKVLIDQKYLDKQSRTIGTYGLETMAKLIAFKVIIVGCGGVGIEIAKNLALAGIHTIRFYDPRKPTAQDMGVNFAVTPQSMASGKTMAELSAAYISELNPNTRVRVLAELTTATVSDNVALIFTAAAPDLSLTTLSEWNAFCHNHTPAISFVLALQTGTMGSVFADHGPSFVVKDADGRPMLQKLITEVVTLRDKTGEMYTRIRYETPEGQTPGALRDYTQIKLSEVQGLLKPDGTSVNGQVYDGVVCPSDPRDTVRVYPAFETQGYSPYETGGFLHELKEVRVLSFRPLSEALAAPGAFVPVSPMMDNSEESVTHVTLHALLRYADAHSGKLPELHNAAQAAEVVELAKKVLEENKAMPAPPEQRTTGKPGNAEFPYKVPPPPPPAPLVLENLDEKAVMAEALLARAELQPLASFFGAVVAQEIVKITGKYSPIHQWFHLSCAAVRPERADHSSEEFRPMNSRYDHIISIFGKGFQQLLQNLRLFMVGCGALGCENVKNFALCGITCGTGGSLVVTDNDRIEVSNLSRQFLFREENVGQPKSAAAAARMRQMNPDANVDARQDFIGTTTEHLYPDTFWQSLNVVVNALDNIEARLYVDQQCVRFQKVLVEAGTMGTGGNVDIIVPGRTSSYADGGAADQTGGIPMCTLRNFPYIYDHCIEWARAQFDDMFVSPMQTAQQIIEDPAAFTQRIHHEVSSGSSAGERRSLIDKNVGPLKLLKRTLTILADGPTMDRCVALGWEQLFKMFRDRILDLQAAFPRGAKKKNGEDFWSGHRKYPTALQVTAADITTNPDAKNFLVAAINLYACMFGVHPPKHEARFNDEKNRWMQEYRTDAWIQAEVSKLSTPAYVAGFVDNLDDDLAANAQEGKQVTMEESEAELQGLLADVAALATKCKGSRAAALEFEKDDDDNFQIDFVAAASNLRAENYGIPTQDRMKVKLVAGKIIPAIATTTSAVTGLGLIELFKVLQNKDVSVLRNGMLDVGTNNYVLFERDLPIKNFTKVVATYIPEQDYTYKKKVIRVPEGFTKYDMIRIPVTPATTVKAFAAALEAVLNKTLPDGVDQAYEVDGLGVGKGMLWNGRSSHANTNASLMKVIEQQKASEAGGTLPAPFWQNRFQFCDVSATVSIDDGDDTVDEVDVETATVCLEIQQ
- methodSummary: Leishmania donovani Ubiquitin Activating Enzyme (LdE1)
- Type: functional
- Design: scale not given: direction of the effect not stated beside the values
- conditionInfo: 30 µM
Entries with a potency or affinity are not part of this list.
Items are presented alongside their recorded Percent Effect.
Report only the number, with the unit % understood.

Solved cases (4 shown):
Cc1cccc(CN(Cc2ccc(C)o2)C2CC(C)(C)NC(C)(C)C2)n1; 9.46
CC(C)OCCN1CCN(C(=O)c2cccc(CC#N)c2)CC1; 18.2
CCc1nc(COc2ccc(OCc3cnn(C)c3)cc2)no1; 13.5
CCC(C)(NCC(=O)Nc1ccccc1)c1nc(C)cs1 (centres undefined); 2.7

Ask: I have this molecule here, CNS(=O)(=O)c1ccc(C(=O)N2CCCC2c2cnn(C)c2)o1 (centres undefined) , and I need its recorded Percent Effect.
Reply: 7.89

Ask: Check COCc1cccc(NC(C)C(=O)N(C)Cc2cccc(F)c2)c1 (centres undefined) too.
Reply: -2.7

---

In this section, each of the molecules is paired with its reported Percent Effect.
- studyTarget: Arginase-2, mitochondrial (Homo sapiens)
- methodSummary: in vitro enzyme assay to detect the production of urea directly proportional to the activity of Arginase II; note: in the data most compounds retested in dose-response had high values
- Format: functional
- Design: scale not given: direction of the effect not stated beside the values
- conditionInfo: 33.3 µM
Could you give me the number in %? Just the number is fine.

Cc1nn(C)cc1CNC(=O)c1cn(CCC2CCCCN2)nn1 (stereo unspecified); -1.04
O=C(c1cc(F)ccc1F)C1CCN(C(=O)c2cccnc2O)CC1; 0.21
Cc1ccc(NC2CCN(C(=O)CCNS(C)(=O)=O)CC2)nn1; -5.36
CC(C)c1nc2n(n1)CC(NCc1ccncc1)CC2 (stereo unspecified); -5.92

Ask: Look up Percent Effect: `COCCC(=O)N1CCc2cc(Cl)cc(Cl)c2C1`
Reply: 0

---

- studyTarget: Chromo domain-containing protein 1 (Saccharomyces cerevisiae (strain ATCC 204508 / S288c) (Baker's yeast))
- methodSummary: ScCHD-1 Enzyme Inhibition Assay; note: in the data most compounds retested in dose-response had high values
- Format: functional
- Design: scale not given: direction of the effect not stated beside the values
- conditionInfo: 30 µM
Recorded measurements of Percent Effect, one per entry
# number only, unit % dropped from output

Use these answered entries as a reference point.
O=C1CC2(CCN(CC3CC3)C2)CN1c1cccc(F)c1 (stereo unspecified); -0.923
CC(C(=O)NCc1ccc(-n2cncn2)nc1)n1ccnc1 (stereo unspecified); -8.54
CC(=O)N1[C@H](Cn2cncn2)C[C@@H]2CN(S(C)(=O)=O)CC[C@@H]21; -4.74
Cc1cccc(-c2nc(C)nn2CC(=O)NC2CCCC2)c1; -9.1
Cc1cc(C(C)NC(=O)N2CCC(n3cncn3)CC2)c(C)s1 (stereo unspecified); -3.57

Ask: // lookup Percent Effect for `O=C(NCCCOCC1CC1)Nc1cccnc1N1CCOCC1`
Reply: 14.9

---

Quick reference for Percent Effect among some compounds
- Organism: Homo sapiens
- methodSummary: To identify inhibition of the IFN signalling (Jak-Stat) pathway via expression of an eGFP reporter gene under the control of an IFN-stimulated response element (ISRE) containing MxA promoter.
- Type: functional
- Set-up: scale not given: direction of the effect not stated beside the values
- conditionInfo: 30 µM
Quote the value and follow it with the unit of measurement.

Worked cases, answers included:
COCCCC(=O)NS(=O)(=O)c1ccc2c(c1)OCCCO2; 0.992%
CC(C)(C)NC(=O)NC(=O)CNC(C)(C)c1ccc2c(c1)OCCO2; 11.6%
Cn1cc(CC2CCN(C(=O)NCc3cn4ccsc4n3)C2)cn1 (centres undefined); 4.6%
Cc1ccc(-c2csc(N)c2C#N)cc1; 28%

Ask: Returns the measured Percent Effect for the input compound. Input: `Cc1nc(CN2CCCN(CC(=O)Nc3cccnc3)CC2)no1`
Reply: 23.7%

Ask: One more compound: `NC(=O)COc1ccc(CNCc2ccc(F)cc2F)cc1`
Reply: -28.4%

---

- studyTarget: Tyrosyl-tRNA synthetase, putative (Trypanosoma cruzi (strain CL Brener))
- methodSummary: Trypanosoma cruzi tyrosyl tRNA synthetase (TcYRS) _High Tyrosine SOP; note: in the data most compounds retested in dose-response had high values
- Format: functional
- Parameters: scale not given: direction of the effect not stated beside the values
- conditionInfo: 30 µM
Attribute: Percent Effect
Give a bare numeral; the unit % is implied.

Would you please look over these solved cases?
Cc1noc(C(C)C)c1C(=O)NCC(c1cccc(F)c1)N(C)C (configuration not stated); 2.46
O=C(c1ccccc1N1CCOCC1)N1CCCC(n2cccn2)C1 (configuration not stated); 5.42
O=C(c1cc(F)ccc1F)C1CCN(C(=O)c2ccccn2)CC1; 7.62
COc1ccccc1Oc1ncccc1CNC(=O)C(C)N1CCCC1 (configuration not stated); 4.21
Cc1ccc(CNC(=O)Cn2ncc3c2c(C)nn3C)cc1; 3.17

Ask: Requested field: Percent Effect. Item: `CNS(=O)(=O)c1cccc(CNC(=O)c2c(C)oc(C)c2C)c1`
Reply: 2.08

Ask: Here is the next compound: `COc1ccccc1OC1(C(=O)O)CCN(c2nccnc2C)CC1`
Reply: 5.21

Ask: Would you kindly repeat that for CCc1nc(CC(=O)N2CCOCC2c2ncon2)cs1 (configuration not stated) ?
Reply: 0

---

- Test system: Trypanosoma cruzi
- methodSummary: Trypanosoma cruzi phosphomannomutase and mannose-1-phosphate guanylyltransferase assay
- Format: functional
- Design: scale not given: direction of the effect not stated beside the values
- conditionInfo: 10 µM
measuredQuantity: Percent Effect (%)
Please give a number only; it is taken to be in %.

Cc1nnc(N2CCC(CS(N)(=O)=O)CC2)c(C#N)c1C; 0.49
c1cnn(CC2CN(CCc3ccncc3)CCO2)c1 (stereo unspecified); -2.06
CCCNC(=O)C(C)NC(=O)CCc1ccccc1Br (stereo unspecified); -9.43
Cc1ccc(-n2nnc(CC(=O)N3CCOCC3)c2C)cc1; 5.61
CC(NC(N)=O)C(=O)N(C)CCCc1cc(-c2ccccc2)no1 (stereo unspecified); -10.1
CC(C)CN1CCN(C(=O)Nc2cc(C(F)(F)F)c[nH]c2=O)CC1; -2.06
Cn1cc(CN2CC[C@@H]3O[C@H](C(=O)N4CCOCC4)C[C@@H]32)cn1; -3.91
O=C(Nc1ccccc1F)N(CCO)Cc1ccsc1; -3.76
CCN1C[C@@H]2[C@@H](OC)CCN(S(=O)(=O)c3ccccc3)[C@@H]2C1; -7.48
COc1ccccc1Oc1ncccc1CNC(=O)[C@@H](C)NC(C)=O; -3.98

We now examine a further compound.
Ask: Requested field: Percent Effect. Item: CC(=O)N1CCC(c2ccnc(Nc3cnccn3)n2)C1 (stereo unspecified)
Reply: -4.72

---

- studyTarget: Protein translocase subunit SecA (Escherichia coli (strain K12)) (UniProt P10408)
- Sequence (P10408 whole entry): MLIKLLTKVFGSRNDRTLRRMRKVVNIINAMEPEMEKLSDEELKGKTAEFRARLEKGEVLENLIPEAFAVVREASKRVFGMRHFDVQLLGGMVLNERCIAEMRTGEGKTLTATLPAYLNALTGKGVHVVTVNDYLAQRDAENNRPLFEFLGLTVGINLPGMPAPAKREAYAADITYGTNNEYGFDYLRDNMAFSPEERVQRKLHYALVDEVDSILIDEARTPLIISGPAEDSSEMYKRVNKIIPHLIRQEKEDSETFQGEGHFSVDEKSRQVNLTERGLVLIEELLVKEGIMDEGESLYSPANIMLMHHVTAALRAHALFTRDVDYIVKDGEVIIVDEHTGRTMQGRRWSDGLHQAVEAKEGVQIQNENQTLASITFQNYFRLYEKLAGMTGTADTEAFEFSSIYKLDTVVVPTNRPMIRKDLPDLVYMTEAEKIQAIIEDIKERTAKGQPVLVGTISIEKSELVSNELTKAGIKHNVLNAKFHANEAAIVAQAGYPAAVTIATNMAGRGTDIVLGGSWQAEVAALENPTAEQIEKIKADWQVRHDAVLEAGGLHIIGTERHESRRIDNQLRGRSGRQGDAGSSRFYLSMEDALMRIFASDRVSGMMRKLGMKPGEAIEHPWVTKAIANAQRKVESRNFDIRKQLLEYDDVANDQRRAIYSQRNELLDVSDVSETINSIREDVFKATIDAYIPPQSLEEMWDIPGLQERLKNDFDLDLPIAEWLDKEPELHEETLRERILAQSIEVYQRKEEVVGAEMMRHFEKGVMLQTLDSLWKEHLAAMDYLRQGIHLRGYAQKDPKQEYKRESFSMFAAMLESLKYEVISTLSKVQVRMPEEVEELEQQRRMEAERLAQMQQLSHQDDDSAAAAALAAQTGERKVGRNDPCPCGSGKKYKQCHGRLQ
- methodSummary: Assay to Identify E. coli SecA ATPase Inhibitors
- Type: functional
- Parameters: scale not given: direction of the effect not stated beside the values
- conditionInfo: 30 µM
Measured potencies and affinities stand elsewhere.
molecules and their reported Percent Effect
The reply should contain only the number, in %.

Some molecules with recorded Percent Effect:
CCC(=O)Nc1nnc(CCCOc2ccccc2)s1; -6.68
O=C(c1ccccc1N1CCOCC1)N1CCCC(n2cccn2)C1 (centres undefined); -5.13
COc1cccc(N2CCN(C(=O)C(O)c3cccc(Cl)c3)CC2=O)c1 (centres undefined); 0.76

Ask: What does the record list as Percent Effect for `CCn1cc(NC(=O)C2CCN(Cc3noc(C(C)C)n3)CC2)cn1` ?
Reply: -2.1

Ask: Try COc1c(C2CCCN2Cc2csc(C(C)C)n2)c(C)nn1C (centres undefined) next.
Reply: -0.655

Ask: Another molecule to look at: `Cc1nnc2n1CCN(C(=O)c1cc(Cl)c[nH]1)C2`
Reply: -3.51

Ask: Note, next up: `Cc1ncsc1C(=O)NCCn1nc2ccccn2c1=O`
Reply: -2.94

Ask: Same thing, different molecule: c1ccc2oc(NC3CCCN(Cc4noc(C5CC5)n4)C3)nc2c1 (centres undefined)
Reply: -1.73

Ask: Do the same for `CC(C)c1nnc(NC(=O)NCc2ccnc(N(C)C)c2)s1` please
Reply: 0.949

Ask: Next entry: Cc1noc(C)c1C1CCCN1C(=O)CN1CC2(CCNCC2)OC1=O (centres undefined)
Reply: -6.39

---

Listing of recorded Percent Effect by entry.
- studyTarget: Chromo domain-containing protein 1 (Saccharomyces cerevisiae (strain ATCC 204508 / S288c) (Baker's yeast))
- methodSummary: ScCHD-1 Enzyme Inhibition Assay; note: in the data most compounds retested in dose-response had high values
- Format: functional
- Parameters: scale not given: direction of the effect not stated beside the values
- conditionInfo: 30 µM
Report as a plain number; the unit % is understood.

COCCN1C(=O)C[C@H]2[C@H]1CCN2Cc1cccc(C#N)c1; 1.66
O=C(C1CCS(=O)(=O)C1)N1CCN(c2cnccn2)CC1 (centres undefined); -4.21
Cc1cnn(CC2CN(Cc3cccc(OCC(N)=O)c3)CCO2)c1 (centres undefined); 1.45

Ask: Recorded Percent Effect for COc1ccc(NC(C)C(=O)NCCc2cccs2)cc1F (centres undefined) , please?
Reply: -3.93
